- Target entity: T1, human GIP receptor (human, UniProt P48546 22-466)
- T1 sequence (looked up): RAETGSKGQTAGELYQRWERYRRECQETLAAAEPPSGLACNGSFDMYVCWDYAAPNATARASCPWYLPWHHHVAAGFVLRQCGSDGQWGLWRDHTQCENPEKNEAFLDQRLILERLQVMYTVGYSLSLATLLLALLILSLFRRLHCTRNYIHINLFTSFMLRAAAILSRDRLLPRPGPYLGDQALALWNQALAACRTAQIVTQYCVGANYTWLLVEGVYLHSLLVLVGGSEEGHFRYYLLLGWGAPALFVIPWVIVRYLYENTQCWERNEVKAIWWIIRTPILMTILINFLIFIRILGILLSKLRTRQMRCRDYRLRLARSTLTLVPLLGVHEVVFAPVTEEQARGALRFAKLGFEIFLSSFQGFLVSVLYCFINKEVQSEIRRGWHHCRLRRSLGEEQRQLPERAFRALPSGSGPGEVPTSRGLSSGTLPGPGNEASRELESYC
- Assay explanation: cell-based or functional assay
Property name: logEC50 (cAMP)
API doc: respond with a numeric literal and nothing else, no unit.

Take a look at these entries with their results.
HAEGTFISDYSIAMDKLAARDFINWLIQTKITD [GIP-GLP-2 co-agonist 7] :: -7.59
HGDGTFISDYSTILDNLAARDFINWLIQTKITD [GIP-GLP-2 co-agonist 11] :: -8.5
HADGTFISDYSTILDNLAARDFINWLIQTKGKK [GIP-GLP-2 co-agonist 19] :: -9.6

Ask: Look up logEC50 (cAMP): HADGTFISDYSTILDNLAARDFINWLIQTKITD [GIP-GLP-2 co-agonist 3]
Result: -9.97

Ask: Look up logEC50 (cAMP): HAEGTFISDYSTILDNLAARDFINWLIQTKITDNDWKHNITQ [GIP-GLP-2 co-agonist 2]
Result: -7.92

Ask: Look up logEC50 (cAMP): HAEGTFISDMNTILDNLAARDFINWLIQTKITD [GIP-GLP-2 co-agonist 6]
Result: -6.77

Ask: Look up logEC50 (cAMP): HAEGTFISDYSTILDNIHQQDFINWLIQTKITD [GIP-GLP-2 co-agonist 8]
Result: -8.23
